Experiment: SAD phase pharmacokinetics
Type: in vivo, human
Conditions: both, human, plasma, oral, 10 mg, C max, GeoMean, SAD 10 mg
experimental_endpoint: Cmax

1. Fc1ccccc1Cc1nc(-c2nc(C(F)(F)F)n[nH]2)cn2ccnc12
1190 ng/mL

###

Assay: SAD phase pharmacokinetics
Type: in vivo, human
Conditions: human, plasma, oral, 0.3 mg, C max, GeoMean, SAD 0.3 mg
experimental_endpoint: Cmax (ng/mL)

1) Fc1ccccc1Cc1nc(-c2nc(C(F)(F)F)n[nH]2)cn2ccnc12 [zagociguat]
40

###

Test: SAD phase pharmacokinetics
Format: in vivo, human
Conditions: both, human, plasma, oral, 20 mg, C max, GeoMean, SAD 20 mg
experimental_endpoint: Cmax (ng/mL)

1. Fc1ccccc1Cc1nc(-c2nc(C(F)(F)F)n[nH]2)cn2ccnc12 [zagociguat]
2190

###

Experiment: MAD phase pharmacokinetics
Assay type: in vivo, human
Settings: human, plasma, oral, 10 mg, C trough, GeoMean, MAD 10 mg q.d., day 12
experimental_endpoint: concentration at 12 day (ng/mL)

1. Fc1ccccc1Cc1nc(-c2nc(C(F)(F)F)n[nH]2)cn2ccnc12 [zagociguat]
2910

###

Assay: SAD phase pharmacokinetics
Type: in vivo, human
Settings: both, human, plasma, oral, 10 mg, t 1/2, Median, SAD 10 mg
experimental_endpoint: half-life (h)

1. Fc1ccccc1Cc1nc(-c2nc(C(F)(F)F)n[nH]2)cn2ccnc12
64.8

###

Assay: MAD phase pharmacokinetics
Type: in vivo, human
Details: human, plasma, oral, 2 mg, C trough, Median, MAD 2 mg q.d., day 14
experimental_endpoint: concentration at 14 day (ng/mL)

1. Fc1ccccc1Cc1nc(-c2nc(C(F)(F)F)n[nH]2)cn2ccnc12
632

###

Assay: SAD phase pharmacokinetics
Format: in vivo, human
Settings: human, plasma, oral, 30 mg, T max, Median, SAD 30 mg
experimental_endpoint: Tmax (h)

1. Fc1ccccc1Cc1nc(-c2nc(C(F)(F)F)n[nH]2)cn2ccnc12
4.5

###

Assay: MAD phase pharmacokinetics
Assay type: in vivo, human
Details: human, plasma, oral, 5 mg, C max, Median, MAD 5 mg q.d., day 14
experimental_endpoint: Cmax (ng/mL)

1. Fc1ccccc1Cc1nc(-c2nc(C(F)(F)F)n[nH]2)cn2ccnc12
2230

###

Test: MAD phase pharmacokinetics
Type: in vivo, human
Details: human, plasma, oral, 10 mg, C trough, Median, MAD 10 mg q.d., day 12
experimental_endpoint: concentration at 12 day

1) Fc1ccccc1Cc1nc(-c2nc(C(F)(F)F)n[nH]2)cn2ccnc12 [zagociguat]
3240 ng/mL

###

Assay: MAD phase pharmacokinetics
Type: in vivo, human
Conditions: human, plasma, oral, 5 mg, AUC τ, GeoMean, MAD 5 mg q.d., day 14
experimental_endpoint: AUC (ng·h/mL)

1. Fc1ccccc1Cc1nc(-c2nc(C(F)(F)F)n[nH]2)cn2ccnc12
42100

###

Assay: MAD phase pharmacokinetics
Type: in vivo, human
Settings: human, plasma, oral, 15 mg, AUC τ, Median, MAD 15 mg q.d., day 14
experimental_endpoint: AUC (µg·h/mL)

1) Fc1ccccc1Cc1nc(-c2nc(C(F)(F)F)n[nH]2)cn2ccnc12 [zagociguat]
112

###

Experiment: MAD phase pharmacokinetics
Type: in vivo, human
Conditions: human, plasma, oral, 2 mg, C max, GeoMean, MAD 2 mg q.d., day 14
experimental_endpoint: Cmax

1. Fc1ccccc1Cc1nc(-c2nc(C(F)(F)F)n[nH]2)cn2ccnc12
880 ng/mL

###

Assay: MAD phase pharmacokinetics
Assay type: in vivo, human
Settings: human, plasma, oral, 15 mg, AUC τ, GeoMean, MAD 15 mg q.d., day 14
experimental_endpoint: AUC

1) Fc1ccccc1Cc1nc(-c2nc(C(F)(F)F)n[nH]2)cn2ccnc12
116 µg·h/mL

###

Assay: SAD phase pharmacokinetics
Type: in vivo, human
Settings: both, human, plasma, oral, 3 mg, T max, Median, SAD 3 mg
experimental_endpoint: Tmax (h)

1. Fc1ccccc1Cc1nc(-c2nc(C(F)(F)F)n[nH]2)cn2ccnc12 [zagociguat]
2.1

###

Assay: SAD phase pharmacokinetics
Assay type: in vivo, human
Settings: human, plasma, oral, 20 mg, AUClast, Median, SAD 20 mg
experimental_endpoint: AUC(0-t) (µg·h/mL)

1) Fc1ccccc1Cc1nc(-c2nc(C(F)(F)F)n[nH]2)cn2ccnc12
158

###

Assay: MAD phase pharmacokinetics
Format: in vivo, human
Conditions: human, plasma, oral, 15 mg, C max, Median, MAD 15 mg q.d., day 14
experimental_endpoint: Cmax (ng/mL)

1) Fc1ccccc1Cc1nc(-c2nc(C(F)(F)F)n[nH]2)cn2ccnc12
5800

###

Assay: SAD phase pharmacokinetics
Type: in vivo, human
Details: human, plasma, oral, 3 mg, C max, GeoMean, SAD 3 mg
experimental_endpoint: Cmax (ng/mL)

1. Fc1ccccc1Cc1nc(-c2nc(C(F)(F)F)n[nH]2)cn2ccnc12
373

###

Assay: MAD phase pharmacokinetics
Assay type: in vivo, human
Details: human, plasma, oral, 10 mg, C trough, Median, MAD 10 mg q.d., day 13
experimental_endpoint: concentration at 13 day (ng/mL)

1. Fc1ccccc1Cc1nc(-c2nc(C(F)(F)F)n[nH]2)cn2ccnc12
3190

###

Experiment: MAD phase pharmacokinetics
Assay type: in vivo, human
Details: human, plasma, oral, 5 mg, C trough, Median, MAD 5 mg q.d., day 11
experimental_endpoint: concentration at 11 day (ng/mL)

1. Fc1ccccc1Cc1nc(-c2nc(C(F)(F)F)n[nH]2)cn2ccnc12
1540

###

Experiment: MAD phase pharmacokinetics
Format: in vivo, human
Settings: human, plasma, oral, 10 mg, C max, GeoMean, MAD 10 mg q.d., day 14
experimental_endpoint: Cmax (ng/mL)

1. Fc1ccccc1Cc1nc(-c2nc(C(F)(F)F)n[nH]2)cn2ccnc12 [zagociguat]
3910

###

Experiment: MAD phase pharmacokinetics
Type: in vivo, human
Conditions: human, plasma, oral, 2 mg, C trough, GeoMean, MAD 2 mg q.d., day 13
experimental_endpoint: concentration at 13 day (ng/mL)

1. Fc1ccccc1Cc1nc(-c2nc(C(F)(F)F)n[nH]2)cn2ccnc12 [zagociguat]
616

###

Experiment: SAD phase pharmacokinetics
Format: in vivo, human
Settings: human, plasma, oral, 30 mg, t 1/2, Median, SAD 30 mg
experimental_endpoint: half-life (h)

1) Fc1ccccc1Cc1nc(-c2nc(C(F)(F)F)n[nH]2)cn2ccnc12 [zagociguat]
62.2

###

Test: MAD phase pharmacokinetics
Assay type: in vivo, human
Conditions: human, plasma, oral, 2 mg, C max, Median, MAD 2 mg q.d., day 1
experimental_endpoint: Cmax (ng/mL)

1. Fc1ccccc1Cc1nc(-c2nc(C(F)(F)F)n[nH]2)cn2ccnc12
268

###

Experiment: SAD phase pharmacokinetics
Format: in vivo, human
Conditions: both, human, plasma, oral, 10 mg, T max, Median, SAD 10 mg
experimental_endpoint: Tmax (h)

1. Fc1ccccc1Cc1nc(-c2nc(C(F)(F)F)n[nH]2)cn2ccnc12
3.5

###

Experiment: SAD phase pharmacokinetics
Type: in vivo, human
Settings: human, plasma, oral, 20 mg, t 1/2, Median, SAD 20 mg
experimental_endpoint: half-life (h)

1) Fc1ccccc1Cc1nc(-c2nc(C(F)(F)F)n[nH]2)cn2ccnc12
68

###

Test: MAD phase pharmacokinetics
Assay type: in vivo, human
Details: human, plasma, oral, 10 mg, C max, GeoMean, MAD 10 mg q.d., day 1
experimental_endpoint: Cmax (ng/mL)

1) Fc1ccccc1Cc1nc(-c2nc(C(F)(F)F)n[nH]2)cn2ccnc12 [zagociguat]
1070

###

Experiment: MAD phase pharmacokinetics
Type: in vivo, human
Details: human, plasma, oral, 5 mg, T max, Median, MAD 5 mg q.d., day 14
experimental_endpoint: Tmax

1) Fc1ccccc1Cc1nc(-c2nc(C(F)(F)F)n[nH]2)cn2ccnc12 [zagociguat]
3 h
